tested on: MYC; assay: 3' UTR reporter interaction score (median-centred robust z-score of log2 firefly/Renilla activity); higher = less repression of the 3' UTR reporter; conditions: HEK293T; 48 h
PROPERTY LABEL: 3' UTR reporter interaction score
Answers are plain numbers.

Please review the following examples before continuing.
RESIDUES: CCACUGCCCCAGGUGCUGCUGG
TESTED SYSTEM: MYC
3' UTR reporter interaction score: 0.494

RESIDUES: AGGCACGGUGUCAGCAGGC
TESTED SYSTEM: MYC
3' UTR reporter interaction score: 0.509

Now take the following sequence into account.
Entry GCAAAGCACACGGCCUGCAGAGA has what 3' UTR reporter interaction score?
0.499

###

For each entry below, report its 3' UTR reporter interaction score value.
system: PHOX2B; assay: 3' UTR reporter interaction score (median-centred robust z-score of log2 firefly/Renilla activity); higher = less repression of the 3' UTR reporter; conditions: HEK293T; 48 h
Answers are plain numbers.

RESIDUES: AGGGAUCGCGGGCGGGUGGCGGCCU
TESTED SYSTEM: PHOX2B
PROPERTY LABEL: 3' UTR reporter interaction score
NUMERIC VALUE: -1.25
//
RESIDUES: UUUAGGAUAAGCUUGACUUUUG
TESTED SYSTEM: PHOX2B
PROPERTY LABEL: 3' UTR reporter interaction score
NUMERIC VALUE: -0.958
//
RESIDUES: CUGGGAUCUCCGGGGUCUUGGUU
TESTED SYSTEM: PHOX2B
PROPERTY LABEL: 3' UTR reporter interaction score
NUMERIC VALUE: 0.484
//
RESIDUES: ACAUAGAGGAAAUUCCACGUUU
TESTED SYSTEM: PHOX2B
PROPERTY LABEL: 3' UTR reporter interaction score
NUMERIC VALUE: -1.91
//
RESIDUES: UUCUCCAAAAGAAAGCACUUUCUG
TESTED SYSTEM: PHOX2B
PROPERTY LABEL: 3' UTR reporter interaction score
NUMERIC VALUE: 1.93
//
RESIDUES: CUCUUGAGGGAAGCACUUUCUGUU
TESTED SYSTEM: PHOX2B
PROPERTY LABEL: 3' UTR reporter interaction score
NUMERIC VALUE: -0.0184
//
RESIDUES: UCCAGCUCCUAUAUGAUGCCUUU
TESTED SYSTEM: PHOX2B
PROPERTY LABEL: 3' UTR reporter interaction score
NUMERIC VALUE: -0.208
//
RESIDUES: AAUCGUACAGGGUCAUCCACUU
TESTED SYSTEM: PHOX2B
PROPERTY LABEL: 3' UTR reporter interaction score
NUMERIC VALUE: 1.36

Please state 3' UTR reporter interaction score for every sequence in the list that follows.
1. UGGAAUGUAAAGAAGUAUGUA
2. UGGAGGAGAAGGAAGGUGAUG
3. ACUGCAGUGAAGGCACUUGU
4. CACUCAGCCUUGAGGGCACUUUC
5. AGGUUGACAUACGUUUCCC

1: 0.106; 2: 2.06; 3: -0.6; 4: 0.0189; 5: 0.494

Would you kindly share the measured 3' UTR reporter interaction score for UUGUACAUGGUAGGCUUUCAUU ?
0.723

The measured values listed here are drawn from the supplement of paper PMC5844555.
